Origin of measurements: patent US20100267728A1

Test system: AMPA receptor
assay.details: In vivo electrophysiology: field EPSP in dentate gyrus of anesthetized animals
Design: species or system rat
setup.conditions: @ 5 mpk i.p.
We begin with a simple list: items and their reported % increase in the amplitude of the field EPSP in rat dentate gyrus.
Give the quantity in %^3, number only.

Observe how each entry below is paired with its result.
# structure.smiles.string, measured.result
records = [
    ("C[C@H](Cn1ncnn1)n1nnc2cc3c(=O)n(C4CC4)nnc3cc2c1=O", 37),
    ("C[C@H](Cn1ncnn1)n1nnc2cc3c(=O)n(C)nnc3cc2c1=O", 46),
    ("C[C@H](Cn1ncnn1)n1cnc2cc3c(=O)n(C4CC4)nnc3cc2c1=O", 33),
]

Quick one: % increase in the amplitude of the field EPSP in rat dentate gyrus for `COCCn1nnc2cc3c(=O)n([C@H](C)Cn4ncnn4)nnc3cc2c1=O` ?
34

Moving on to the next molecule: `C[C@H](Cn1ncnn1)n1nnc2cc3c(=O)n(CC#N)nnc3cc2c1=O`
42

====

We begin with a simple list: items and their reported melting point.

# molecule, melting point
records = [
    ("CCC(Cn1ncnn1)n1cnc2cc3c(=O)n(C4CC4)nnc3cc2c1=O (centres unmarked)", "160 to 161 °C"),
    ("CCC(Cn1nccn1)n1cnc2cc3c(=O)n(C4CC4)nnc3cc2c1=O (centres unmarked)", "129 to 130 °C"),
    ("CC[C@H](Cn1cnnn1)n1cnc2cc3c(=O)n([C@H](C)Cn4ncnn4)nnc3cc2c1=O", "198 to 200 °C"),
]

Quick one: melting point for `C[C@H](Cn1cccn1)n1cnc2cc3c(=O)n([C@H](C)Cn4cc(Cl)cn4)cnc3cc2c1=O` ?
231 to 232 °C

Moving on to the next molecule: CC(Cn1cccn1)n1nnc2cc3c(=O)n(C4CC4)nnc3cc2c1=O (centres unmarked)
178 to 180 °C

====

We begin with a simple list: items and their reported melting point.

Observe how each entry below is paired with its result.
# compound, measured.result
rows = [
    ("CC(Cn1ncnn1)n1nnc2cc3c(=O)n(C(C)Cn4ncnn4)nnc3cc2c1=O (stereo not drawn)", "223 to 226 °C"),
    ("CCC(Cn1ccnn1)n1cnc2cc3c(=O)n(C4CC4)nnc3cc2c1=O (stereo not drawn)", "215 to 217 °C"),
    ("CC[C@H](Cn1nnnc1C)n1cnc2cc3c(=O)n([C@H](C)Cn4ncnn4)nnc3cc2c1=O", "238 to 240 °C"),
    ("C[C@H](Cn1cnnn1)n1nnc2cc3c(=O)n([C@H](C)Cn4ncnn4)nnc3cc2c1=O", "160 to 161 °C"),
]

Quick one: melting point for C#CCn1nnc2cc3c(=O)n(C(C)Cn4ncnn4)cnc3cc2c1=O (stereo not drawn) ?
222 to 223 °C

Moving on to the next compound: `C[C@H](Cn1cncn1)n1nnc2cc3c(=O)n(C4CC4)nnc3cc2c1=O`
195 to 199 °C

Moving on to the next compound: CC(Cn1cnnn1)n1cnc2cc3c(=O)n(C4CC4)nnc3cc2c1=O (stereo not drawn)
245 to 246 °C

Moving on to the next compound: `CC[C@H](Cn1nnc(C)n1)n1cnc2cc3c(=O)n([C@H](C)Cn4ncnn4)nnc3cc2c1=O`
140 to 141 °C

Moving on to the next compound: CCC(Cn1cnnn1)n1cnc2cc3c(=O)n(C4CC4)nnc3cc2c1=O (stereo not drawn)
213 to 214 °C
